B1: SETD8 (parent)
chain: KKAQGKTQQNRKLTDFYPVRRSSR

Variants of: B1
Experiment: protein stability index of a GFP-peptide fusion (GPS, HEK-293T) (PSI 1-6); higher = more stable;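 note: lentivirally expressed fusions sorted by FACS into six bins by GFP to DsRed ratio, PSI derived from sequencing read proportions per bin multiplied by bin number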
Conditions: c terminus: a fixed tail appended

Variant Spec: R21I
protein stability index: 3.33

Variant Spec: R11S
protein stability index: 2.85

Variant Spec: Q9D
protein stability index: 2.83

Variant Spec: L13D
protein stability index: 4.69

Variant Spec: K6M
protein stability index: 1.62

Variant Spec: R20P
protein stability index: 4.13

Variant Spec: S22T
protein stability index: 2.63

Variant Spec: R21G
protein stability index: 2.9

Variant Spec: K12T
protein stability index: 2.4

Variant Spec: T14Q
protein stability index: 3.33

Variant Spec: R20C
protein stability index: 2.78

Variant Spec: D15L
protein stability index: 2.87

Variant Spec: K12E
protein stability index: 3.35

Variant Spec: K1I
protein stability index: 4.17

Variant Spec: D15W
protein stability index: 4.09

Variant Spec: K12G
protein stability index: 2.76

Variant Spec: Q8V
protein stability index: 3.2

Variant Spec: R24H
protein stability index: 2.54

Variant Spec: F16N
protein stability index: 4.28

Variant Spec: R21T
protein stability index: 2.23

Variant Spec: K1F
protein stability index: 2.11

Variant Spec: F16I
protein stability index: 2.99

Variant Spec: K6D
protein stability index: 2.54

Variant Spec: V19L
protein stability index: 3.11

Variant Spec: A3I
protein stability index: 2.84

Variant Spec: F16P
protein stability index: 3.07

Variant Spec: A3K
protein stability index: 2.72

Variant Spec: Q4H
protein stability index: 2.73

Variant Spec: R11D
protein stability index: 3.45

Variant Spec: Q9A
protein stability index: 3.26

Variant Spec: A3F
protein stability index: 2.93

Variant Spec: N10L
protein stability index: 2.39

Variant Spec: D15S
protein stability index: 3.12

Variant Spec: R20K
protein stability index: 1.93

Variant Spec: L13H
protein stability index: 3.83

Variant Spec: R11Y
protein stability index: 2.94

Variant Spec: F16C
protein stability index: 2.71

Variant Spec: G5L
protein stability index: 2.77

Variant Spec: F16D
protein stability index: 2.58

Variant Spec: T7R
protein stability index: 3.38

Variant Spec: P18F
protein stability index: 2.61

Variant Spec: D15Q
protein stability index: 2.36

Variant Spec: Q9G
protein stability index: 1.89

Variant Spec: Q4Y
protein stability index: 2.18

Variant Spec: Q9K
protein stability index: 3.66

Variant Spec: F16E
protein stability index: 4.51
